Reported values of melting point for individual entries
PROPERTY LABEL: melting point

INSERT INTO assay_data (input_smiles, result) VALUES
  ('CCCCCCONC(=O)c1ccc(C(=O)c2cc3c(cc2C)C(C)(C)CCC3(C)C)cc1', '91 to 95 °C'),
  ('CC1(C)CCC(C)(C)c2cc3c(cc21)CCCN3Cc1ccc(C(=O)O)cc1', '173 to 175 °C'),
  ('CC1(C)CCC(C)(C)c2cc(C(=NO)c3ccc(C(=O)O)cc3)c(OCc3ccccc3)cc21', '199 to 205 °C (dec.)'),
  ('CC1(C)CCC(C)(C)c2cc(C(=O)c3ccc(C(=O)NO)cc3)c(OCc3ccc(Br)cc3)cc21', '221 to 223.5 °C'),
  ('CCCc1cc2c(cc1C(=O)c1ccc(C(=O)O)cc1)C(C)(C)CCC2(C)C', '252 to 254 °C'),
  ('CC1(C)CCC(C)(C)c2cc(C3(c4ccc(C(=O)O)cc4)OCCO3)c(OCc3ccccc3)cc21', '222 to 228 °C (dec.)'),
  ('CCOc1cc2c(cc1C=Cc1ccc(C(=O)O)cc1)C(C)(C)CCC2(C)C', '195 to 200 °C (dec.)'),
  ('CCCCCCCOc1cc2c(cc1C=Cc1ccc(C(=O)O)cc1)C(C)(C)CCC2(C)C', '153 to 155 °C');

====

Molecular target: RXRγ (Mus musculus, UniProt P28705)
Sequence (P28705 1-463): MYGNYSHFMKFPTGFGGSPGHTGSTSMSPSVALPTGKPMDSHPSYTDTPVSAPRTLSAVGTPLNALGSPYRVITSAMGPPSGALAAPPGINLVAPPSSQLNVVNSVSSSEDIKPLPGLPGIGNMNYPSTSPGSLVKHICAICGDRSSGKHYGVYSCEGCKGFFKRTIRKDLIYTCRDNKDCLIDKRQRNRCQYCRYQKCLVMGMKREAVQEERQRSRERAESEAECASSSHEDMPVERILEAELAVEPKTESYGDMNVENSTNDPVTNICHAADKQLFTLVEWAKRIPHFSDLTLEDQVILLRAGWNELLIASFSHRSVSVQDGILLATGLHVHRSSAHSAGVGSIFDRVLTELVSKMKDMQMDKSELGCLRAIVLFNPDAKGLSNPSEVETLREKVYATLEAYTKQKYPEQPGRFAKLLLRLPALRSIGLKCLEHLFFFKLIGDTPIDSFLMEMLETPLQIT
Assay: RXR binding, RXRγ
Settings: -v- tritiated LGD1069 and tritiated 9-cis retinoic acid
pKd: −log10 of the molar value.
Reported values of pKd for individual entries
PROPERTY LABEL: pKd

INSERT INTO results (compound, target_or_test_system, property_label, result_number) VALUES
  ('COC(C)(c1ccc(C(=O)O)cc1)c1cccc2cc3c(cc12)C(C)(C)CCC3(C)C (centres unmarked)', 'RXRγ (Mus musculus, UniProt P28705)', 'pKd', 7.15),
  ('CC1(C)CCC(C)(C)c2cc(C(=NO)c3ccc(C(=O)O)cc3)c(OCc3ccccc3)cc21', 'RXRγ (Mus musculus, UniProt P28705)', 'pKd', 7.77),
  ('COc1ccc(COc2cc3c(cc2/C(C)=C/C=C/C(C)=C/C(=O)O)C(C)(C)CCC3(C)C)cc1', 'RXRγ (Mus musculus, UniProt P28705)', 'pKd', 7.34),
  ('CC(C=CC=C(C)c1cc2c(cc1OCC(C)C)C(C)(C)CCC2(C)C)=CC(=O)O', 'RXRγ (Mus musculus, UniProt P28705)', 'pKd', 7.51),
  ('CC1(C)CCC(C)(C)c2cc3c(cc21)CCCN3Cc1ccc(C(=O)O)cc1', 'RXRγ (Mus musculus, UniProt P28705)', 'pKd', 6.74),
  ('CON=C(c1ccc(C(=O)O)cc1)c1cc2c(cc1OCc1ccccc1)C(C)(C)CCC2(C)C', 'RXRγ (Mus musculus, UniProt P28705)', 'pKd', 8.22),
  ('CCCCCCCOc1c(\C(C)=C/C=C/C(C)=C/C(=O)O)cc(C(C)C)cc1C(C)C', 'RXRγ (Mus musculus, UniProt P28705)', 'pKd', 8.22),
  ('CCCOc1cc2c(cc1\C(C)=C/C=C/C(C)=C/C(=O)O)C(C)(C)CCC2(C)C', 'RXRγ (Mus musculus, UniProt P28705)', 'pKd', 7.48);

====

target: RXR:RXR homodimer (Homo sapiens); experiment: RXR homodimer co-transfection assay (FIG. 1); conditions: in the presence of known RXR activators (LGD1069, LG100268, 9-cis retinoic acid)
PROPERTY LABEL: antagonism of RXR homodimer transactivation (in words)

INSERT INTO assay_data (input_smiles, target_or_test_system, result) VALUES
  ('CC1(C)CCC(C)(C)c2cc(C(=NO)c3ccc(C(=O)O)cc3)c(OCc3ccccc3)cc21', 'RXR:RXR homodimer (Homo sapiens)', 'function as antagonists'),
  ('CC1(C)CCC(C)(C)c2cc3c(cc21)CCC=C3Cc1ccc(C(=O)O)cc1', 'RXR:RXR homodimer (Homo sapiens)', 'function as antagonists'),
  ('CC1(C)CCC(C)(C)c2cc3c(cc21)CCCN3Cc1ccc(C(=O)O)cc1', 'RXR:RXR homodimer (Homo sapiens)', 'function as antagonists');

====

Biological target: UniProt:P28704
Sequence (P28704 1-520): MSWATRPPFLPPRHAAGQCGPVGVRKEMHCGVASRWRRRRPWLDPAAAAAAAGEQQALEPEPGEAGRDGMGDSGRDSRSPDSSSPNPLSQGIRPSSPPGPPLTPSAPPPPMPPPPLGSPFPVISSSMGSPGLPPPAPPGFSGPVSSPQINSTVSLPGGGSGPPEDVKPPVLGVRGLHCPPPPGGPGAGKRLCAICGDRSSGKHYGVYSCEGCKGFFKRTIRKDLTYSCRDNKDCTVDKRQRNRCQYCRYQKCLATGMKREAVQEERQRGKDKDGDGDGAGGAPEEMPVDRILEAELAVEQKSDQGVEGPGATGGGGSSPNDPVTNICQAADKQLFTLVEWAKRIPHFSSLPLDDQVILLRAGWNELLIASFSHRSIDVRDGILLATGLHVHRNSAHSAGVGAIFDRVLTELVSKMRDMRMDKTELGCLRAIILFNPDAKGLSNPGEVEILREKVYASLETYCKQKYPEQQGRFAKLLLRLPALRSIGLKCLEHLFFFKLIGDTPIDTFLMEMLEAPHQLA
Assay: RXR homodimer co-transfection assay, antagonist mode, RXRβ
Conditions: read-out: RXRβ Potency IC50; antagonist potency in the presence of the known RXR agonist LGD1069; CV-1 cells
pIC50: −log10 of the molar value.
Reported values of pIC50 for individual entries
PROPERTY LABEL: pIC50

INSERT INTO results (compound, target_or_test_system, property_label, result_number) VALUES
  ('CCCc1cc2c(cc1C1(c3ccc(C(=O)O)cc3)CC1)C(C)(C)CCC2(C)C', 'UniProt:P28704', 'pIC50', 6.15),
  ('CCCOc1cc2c(cc1C1CC1C/C=C/C(C)=C/C(=O)O)C(C)(C)CCC2(C)C (centres unmarked)', 'UniProt:P28704', 'pIC50', 6.47);

====

Target: RXRα:PPARα heterodimer (Homo sapiens, UniProt P19793)
Sequence (P19793 1-462): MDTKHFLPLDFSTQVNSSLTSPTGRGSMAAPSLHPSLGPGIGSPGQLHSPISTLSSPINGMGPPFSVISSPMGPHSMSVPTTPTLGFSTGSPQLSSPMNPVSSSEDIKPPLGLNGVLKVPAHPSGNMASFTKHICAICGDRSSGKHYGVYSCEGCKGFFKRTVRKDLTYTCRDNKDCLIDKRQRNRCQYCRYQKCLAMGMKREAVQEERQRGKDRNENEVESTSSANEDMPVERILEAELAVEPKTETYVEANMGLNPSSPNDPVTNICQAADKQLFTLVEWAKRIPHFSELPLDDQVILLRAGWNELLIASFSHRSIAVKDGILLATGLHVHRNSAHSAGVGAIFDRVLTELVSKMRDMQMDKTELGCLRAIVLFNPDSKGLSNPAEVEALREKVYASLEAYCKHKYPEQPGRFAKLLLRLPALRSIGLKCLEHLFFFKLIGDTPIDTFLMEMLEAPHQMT
Sequence (Q07869 1-468 partner): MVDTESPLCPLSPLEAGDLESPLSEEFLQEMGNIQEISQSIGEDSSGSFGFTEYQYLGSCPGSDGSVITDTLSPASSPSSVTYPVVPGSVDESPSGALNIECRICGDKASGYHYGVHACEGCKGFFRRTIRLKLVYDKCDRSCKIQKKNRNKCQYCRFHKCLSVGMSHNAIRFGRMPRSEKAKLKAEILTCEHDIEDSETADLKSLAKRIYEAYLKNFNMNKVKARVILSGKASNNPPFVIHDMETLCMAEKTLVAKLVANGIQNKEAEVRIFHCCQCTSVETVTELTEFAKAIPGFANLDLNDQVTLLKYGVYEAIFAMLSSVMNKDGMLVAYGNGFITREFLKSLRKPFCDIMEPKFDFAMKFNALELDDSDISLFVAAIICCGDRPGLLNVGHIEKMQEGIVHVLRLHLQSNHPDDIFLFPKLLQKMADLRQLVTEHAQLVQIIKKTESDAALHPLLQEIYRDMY
Test: RXR heterodimer co-transfection assay (RXRα and PPARα, PPARα response element reporter)
pEC50: −log10 of the molar value.
Reported values of pEC50 for individual entries
PROPERTY LABEL: pEC50

INSERT INTO results (molecule, result_number) VALUES
  ('CC1(C)CCC(C)(C)c2cc(C(=NO)c3ccc(C(=O)O)cc3)c(OCc3ccccc3)cc21', 6.05),
  ('CC(C=CC=C(C)c1cc2c(cc1OCc1ccccc1)C(C)(C)CCC2(C)C)=CC(=O)O', 6.70),
  ('CC1(C)CCC(C)(C)c2cc3c(cc21)CCC=C3Cc1ccc(C(=O)O)cc1', 6.10),
  ('CC(C)(Oc1ccc(Cl)cc1)C(=O)O [Clofibric acid, clofibric acid, reference compound]', 4.40);
